Data provenance is ChEMBL document CHEMBL1126483.

Tested On: Neurotensin receptor type 1 (Mus musculus)
Sequence (O88319 whole entry): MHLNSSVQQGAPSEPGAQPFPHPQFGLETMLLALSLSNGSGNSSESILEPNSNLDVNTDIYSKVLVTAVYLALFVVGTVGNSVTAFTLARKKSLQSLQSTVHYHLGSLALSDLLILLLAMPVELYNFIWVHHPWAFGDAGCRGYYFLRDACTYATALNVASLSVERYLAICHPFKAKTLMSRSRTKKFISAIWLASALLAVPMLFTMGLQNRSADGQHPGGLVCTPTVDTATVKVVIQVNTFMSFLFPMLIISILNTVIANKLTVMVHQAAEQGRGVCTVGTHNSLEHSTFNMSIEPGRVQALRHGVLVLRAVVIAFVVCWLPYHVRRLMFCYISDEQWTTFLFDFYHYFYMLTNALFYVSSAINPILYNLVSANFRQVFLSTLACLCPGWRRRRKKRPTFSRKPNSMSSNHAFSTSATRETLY
Test: Inhibition of specific binding of [125I]-Tyr3-NT(1-13) to NT receptors in neonatal mouse whole brain (minus cerebellum)
pKi: −log10 of the molar value. Peptide text beside a SMILES is read from it.
Measure: pKi

# Compound, pKi
records = [
    ("CC(C)C[C@H](NC(=O)[C@H](C)NC(=O)[C@H](Cc1ccc(O)cc1)NC(=O)[C@@H]1CCCN1C(=O)[C@H](CCCNC(=N)N)NC(=O)[C@@H](N)CCCNC(=N)N)C(=O)O (H-RRPYAL-OH)", 8.35),
]

[I] CC[C@H](C)[C@H](NC(=O)[C@H](Cc1ccc(O)cc1)NC(=O)[C@@H]1CCCN1C(=O)[C@H](CCCNC(=N)N)NC(=O)[C@H](CCCNC(=N)N)NC(=O)[C@@H]1CCCN1C(C)=O)C(=O)N[C@@H](CC(C)C)C(=O)O (Ac-PRRPYIL-OH)
[II] CC[C@H](C)[C@H](NC(=O)[C@H](C)NC(=O)[C@@H]1CCCN1C(=O)[C@H](CCCN=C(N)N)NC(=O)[C@@H](N)CCCN=C(N)N)C(=O)N[C@@H](CC(C)C)C(=O)O
[III] CC[C@H](C)[C@H](NC(=O)[C@H](Cc1ccc(O)cc1)NC(=O)[C@H](C)NC(=O)[C@H](CCCN=C(N)N)NC(=O)[C@@H](N)CCCN=C(N)N)C(=O)N[C@@H](CC(C)C)C(=O)O
[IV] CC[C@H](C)[C@H](NC(=O)[C@H](Cc1ccc(O)cc1)NC(=O)[C@@H]1CCCN1C(=O)[C@H](CCCNC(=N)N)NC(=O)[C@H](CCCNC(=N)N)NC(=O)[C@@H]1CCCN1C(=O)[C@H](CCCCN)NC(C)=O)C(=O)N[C@@H](CC(C)C)C(=O)O
Highest pKi first, then in falling order down to the smallest. Your task in answering is to list the labels in the requested order.
IV, I, III, II
(IV: 10.62, I: 10.00, III: 9.04, II: 6.96)
